Method description: Toxicity liver stage against HepG2, at 10uM
Assay type: cell-based
Set-up: test concentration 10 uM, cell line HepG2-A16-CD81EGFP
Details: human, HepG2-A16-CD81EGFP cells; read-out: INHIBITION
For each record, write down the corresponding cytotoxicity at 10 µM.
One number for each entry, in %.

Please review the following examples before continuing.
Compound | Quantity name | Unit label | Meas value
CCCN(Cc1nc(-c2ccc(F)c(OC)c2)oc1C)CC1CCCO1 (stereo unspecified) | cytotoxicity at 10 µM | % | -1.03
CCCC(C)Sc1nnnn1C1CCOCC1 (stereo unspecified) | cytotoxicity at 10 µM | % | 2.3
Cc1csc(C2CCCCN2C(=O)CCn2cncn2)n1 (stereo unspecified) | cytotoxicity at 10 µM | % | -6.32
OCCN1CCCC(c2nccnc2Oc2ccccc2)C1 (stereo unspecified) | cytotoxicity at 10 µM | % | -25.5
Cc1nc(CC(=O)N2CCc3nnc(N(C)C)cc3C2)cs1 | cytotoxicity at 10 µM | % | -7.07

Pending compound:
*Q* Need cytotoxicity at 10 µM, item CCNC(=O)N1CCC(Cc2cccc(C(N)=O)c2)C1 (stereo unspecified)
*A* 2.92
